Please go through the items and note down their EC50.
Molecular target: S1P1 receptor (Homo sapiens)
Sequence (P21453 whole entry): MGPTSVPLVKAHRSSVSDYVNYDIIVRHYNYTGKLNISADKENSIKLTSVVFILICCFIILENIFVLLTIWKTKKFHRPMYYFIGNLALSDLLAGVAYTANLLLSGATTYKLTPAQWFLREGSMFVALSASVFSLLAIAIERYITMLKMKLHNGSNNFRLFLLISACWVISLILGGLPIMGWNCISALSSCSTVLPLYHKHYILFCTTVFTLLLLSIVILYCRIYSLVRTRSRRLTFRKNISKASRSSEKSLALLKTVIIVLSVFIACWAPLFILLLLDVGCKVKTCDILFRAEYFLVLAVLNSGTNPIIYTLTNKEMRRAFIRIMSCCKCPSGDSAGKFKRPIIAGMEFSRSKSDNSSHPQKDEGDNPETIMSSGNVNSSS
Experiment: S1P1 receptor internalization (endosome formation) assay in S1P1 overexpressing cell line (DiscoverX), luminescence
Assay type: cell-based
Settings: S1P1 overexpressing cell line, endosome formation by internalization, luminescence; read-out: Internalization EC50

INPUT: So what's the measured EC50 for this one? COC(=O)C1CN(Cc2ccc(-c3cnc(-c4cccnc4)[se]3)cc2)C1
OUTPUT: > 1000 nM

INPUT: Next molecule: O=C(O)C1CN(Cc2ccc(-c3cnc(-c4ccccn4)[se]3)cc2)C1
OUTPUT: > 1000 nM

INPUT: Request: CCOC(=O)C1CN(Cc2ccc(-c3cnc(-c4ccccc4OC(C)C)[se]3)cc2)C1
OUTPUT: 347 nM

INPUT: Same again, this time with COC(=O)C1CCN(Cc2ccc(-c3cnc(-c4ccc(C(C)(C)C)cc4)[se]3)cc2)CC1
OUTPUT: 519 nM

INPUT: Also COC(=O)C1CN(Cc2ccc(-c3cnc(-c4ccccc4OC(C)C)[se]3)cc2)C1 ?
OUTPUT: > 1000 nM

INPUT: Same again, this time with CC(C)Oc1ccccc1-c1ncc(-c2ccc(CN3CC(C(=O)O)C3)cc2)[se]1
OUTPUT: > 1000 nM

INPUT: Now consider COC(=O)C1CN(Cc2ccc(-c3cnc(-c4cccc(OC(C)C)c4)[se]3)cc2)C1 and answer again.
OUTPUT: 379 nM

INPUT: Same thing, different molecule: O=C(O)C1CN(Cc2ccc(-c3cnc(-c4cccnc4)[se]3)cc2)C1
OUTPUT: 379 nM

INPUT: Try COC(=O)C1CN(Cc2ccc(-c3cnc(-c4ccccn4)[se]3)cc2)C1 next.
OUTPUT: > 1000 nM
